Where do these numbers come from? They come from PubChem BioAssay (NCI).

# Tested on: HT29 colon
# experiment: NCI tumour cell line growth inhibition, 48 h
quantity name: TGI

1) COC(C(=O)NN)c1ccccc1 (stereo not drawn) : > 100 µM
2) COc1ccc(CCN2CC=Cn3c2nc2ccccc2c3=O)cc1 : 27.4 µM
3) COc1cccc(CCN2CCN(CCCc3ccccc3)CC2)c1 : > 100 µM
4) O=C1C[C@@H](C(=O)OCc2ccccc2)NC(=O)C[C@@H](C(=O)OCc2ccccc2)NC(=O)C[C@@H](C(=O)OCc2ccccc2)N1 : > 100 µM
5) COc1ccc2c(c1)C(=O)c1ccc(OC)cc1C2=S : > 100 µM
6) C=C(C)[C@@H]1CC[C@]2(C(=O)N[C@H](CO)Cc3ccccc3)CC[C@]3(C)[C@H](CC[C@@H]4[C@@]5(C)CCCNC(C)(C)[C@@H]5CC[C@]43C)[C@@H]12 : 0.539 µM
7) NCCCN(CCCN(C(=O)Nc1ccccc1)c1ccccc1)C(=O)Nc1ccccc1 : > 100 µM
8) NS(=O)(=O)c1ccc(/C=C/c2ccc(F)cc2)cc1 : > 100 µM
9) CCCCOC(=O)C(NC(C(=O)OCCCC)c1cc(C(C)(C)C)c(O)c(C(C)(C)C)c1)c1cc(C(C)(C)C)c(O)c(C(C)(C)C)c1 (stereo not drawn) : > 100 µM
10) COc1cc(OC)c(C/C=C/c2ccccc2)cc1O : 31.5 µM
11) CSCCC(N)C(=O)NCCNc1ccc(NCCNC(=O)C(N)CCSC)c2c1C(=O)c1ccccc1C2=O (stereo not drawn) : 3.21 µM
12) CC(C)=NN/C(=N\S(=O)(=O)c1ccc(Oc2cccc(Cl)c2C#N)cc1)Nc1ccc(Cl)cc1 : > 100 µM
13) C=C/C=C/NC(=O)OCc1ccccc1 : > 100 µM
14) CCOC(=O)CCC(NC(=O)OCc1ccccc1)C(=O)NC(CCC(=O)OCC)C(=O)NC(CCC(=O)OCC)C(=O)NC(CCC(=O)OCC)C(=O)NC(CCC(=O)OCC)C(=O)NC(CCC(=O)OCC)C(=O)NC(CCC(=O)OCC)C(=O)OCC (stereo not drawn) : > 100 µM
15) O=C1C(c2ccccc2)=C(O)c2cccc3cccc1c23 : > 100 µM
16) Cc1cn(C2CC3C(COCN3O)O2)c(=O)[nH]c1=O (stereo not drawn) : > 100 µM
17) C=Cc1cncc(C#N)c1CCc1c(C#N)cncc1C=C : > 100 µM
18) CN1CCN(C(=O)C(C)(C)c2ccc(C(=O)Nc3cn4cc(-c5ccncc5)ccc4n3)cc2)CC1 : > 94.9 µM

----------
compounds and their reported TGI
# Test system: U251 CNS
# experiment: NCI tumour cell line growth inhibition, 48 h
quantity name: TGI

1) COc1cc2c(cc1OC)[C@H](C)N1CCc3cc(OC)c(OC)cc3[C@@H]1C2 : > 100 µM
2) CC(=O)N1CC(C)(C)c2c(C)c(O)c(C)c(C)c21 : > 100 µM
3) O=c1cnn(C2OC(CO)C(O)C2O)c(=S)[nH]1 (stereo not drawn) : > 100 µM

----------
# Tested on: UO-31 renal
# experiment: NCI tumour cell line growth inhibition, 48 h
Listed compounds paired with reported TGI
quantity name: TGI

1) COc1cc2c[n+](C)c3c4cc(OC)c(OC(C)C)cc4ccc3c2cc1OC : > 100 µM
2) COc1ccc(CC(N)c2ccc(OC)cc2)cc1 (stereo unspecified) : > 100 µM
3) Cc1cc(NC(=O)NC(=O)c2ccccc2NC(=O)C(C)N)ccc1Oc1ncc(Br)cn1 (stereo unspecified) : 26.9 µM
4) N#CC1(C#N)NC(c2cccs2)C(C#N)(C#N)NC1c1cccs1 (stereo unspecified) : > 100 µM
5) Cc1cc2c(cc1Cl)SC1=NN(C)C(C)N1S2(=O)=O (stereo unspecified) : > 100 µM
6) COc1cc2c(cc1OC)[C@H](C)N1CCc3cc(OC)c(OC)cc3[C@@H]1C2 : > 100 µM
7) C/C(O)=C(/C=N/C(=S)Nc1ccc(S(N)(=O)=O)cc1)C(=O)Nc1ccccc1C : > 100 µM
8) COc1cccc(CCN2CCN(CCCc3ccccc3)CC2)c1 : > 100 µM
9) C=C[C@@H](C)[C@H](NS(=O)(=O)c1ccc(C)cc1)C(=O)OCC : 96.1 µM
10) Cc1ccccc1C1OC(=O)c2ccc3ccccc3c21 (stereo unspecified) : 10.9 µM
11) O=C1C[C@@H](C(=O)OCc2ccccc2)NC(=O)C[C@@H](C(=O)OCc2ccccc2)NC(=O)C[C@@H](C(=O)OCc2ccccc2)N1 : > 100 µM
